Assay: in vitro
Conditions: human, liver microsomes
READOUT LABEL: microsomal CLint (µL/min/mg)
Give just the number in µL/min/mg; leave the unit off.

Respond only with microsomal CLint recorded for `O=C(NC1CC1)c1cc(-c2cccs2)on1` 38.9

Respond only with microsomal CLint recorded for `O=C(NCC12CC3CC(CC(C3)C1)C2)c1cc(-n2ncc(=O)[nH]c2=O)ccc1Cl` 83.8

Respond only with microsomal CLint recorded for Cc1oc(=O)oc1CN1CCN(c2cc3c(cc2F)c(=O)c(C(=O)O)c2n3C(C)S2)CC1 (stereo unspecified) 15.5

Respond only with microsomal CLint recorded for Cc1nccn1CC1CCc2c(c3ccccc3n2C)C1=O (stereo unspecified) 6.46

Respond only with microsomal CLint recorded for `CNCC[C@@H](Oc1cc(OC)ccc1C#N)c1ccccc1` 26

Respond only with microsomal CLint recorded for `Cc1ccc(S(=O)(=O)N2N=Cc3ccccc3B2O)cc1` 14.1

Respond only with microsomal CLint recorded for `CN[C@@H](C)C(=O)N[C@H](C(=O)N1CC[C@H]2CCN(CCc3ccccc3)C[C@H]21)C1CCCCC1` 21.4

Respond only with microsomal CLint recorded for `O=C(CSc1ccccc1)N1CCN(C(=O)c2ccco2)CC1` 12.3
